Entry source: patent US20080021056A1

# Target Under Test: gamma-secretase (Homo sapiens, UniProt P49768)
# Construct: partially purified extract of IMR-32 cell membranes as the gamma-secretase enzyme preparation; endogenous in cells; host or cells: IMR-32 cell membranes (partially purified extract)
# Assay Notes: Gamma-secretase APP enzyme assay
# Format: biochemical
# Measurement Setup: cleavage of MBP-C125 Swe substrate at the Aβ40 site; partially purified extract of IMR-32 cell membranes; ELISA
pIC50: −log10 of the molar value.
Assay Metric: pIC50

// below: answered compounds
[[record]]
compound = "O=S(=O)(c1ccc(Cl)cc1)N1c2ccccc2-c2n[nH]cc2C1C1CC1 (stereo not shown)"
target_under_test = "gamma-secretase (Homo sapiens, UniProt P49768)"
result = "7.00 to 10.00"

[[record]]
compound = "CCC1N(S(=O)(=O)c2ccc(Cl)cc2)c2ccccc2-c2ccnn21 (stereo not shown)"
target_under_test = "gamma-secretase (Homo sapiens, UniProt P49768)"
result = "6.30 to 7.00"

[[record]]
compound = "O=S(=O)(c1ccc(Cl)s1)N1c2cc(F)c(F)cc2-c2n[nH]cc2C1C1CC1 (stereo not shown)"
target_under_test = "gamma-secretase (Homo sapiens, UniProt P49768)"
result = "7.00 to 10.00"


As a next step, examine the compound that follows.
Form: compound = O=[N+]([O-])c1ccc(S(=O)(=O)N2c3cc(F)c(F)cc3-c3[nH]ncc3[C@H]2C2CC2)cc1 ; pIC50 = 7.00 to 10.00
